Source listed as ChEMBL document CHEMBL3352173.

Test: Clearance in TR-negative Wistar rat at 10 mg/kg, iv
Type: ADME, organism-based
Set-up: dose 10 mg/kg, route intravenous
Details: in vivo
Criterion: clearance strictly under 9 mL/min/kg. Met: fulfilled. Not met: not fulfilled.

Prompt: Hello, I'm reviewing records and need to know if clearance of CO[C@H]1CN(c2nc(-c3ncccn3)c(C(=O)O)s2)CC[C@H]1NC(=O)c1[nH]c(C)c(Cl)c1Cl is below 9 mL/min/kg. Could you check?
Response: not fulfilled

Prompt: Hello, I'm reviewing records and need to know if clearance of Cc1[nH]c(C(=O)NC2CCN(c3ncc(C(=O)O)s3)CC2)c(Cl)c1Cl is below 9 mL/min/kg. Could you check?
Response: not fulfilled

Prompt: Hello, I'm reviewing records and need to know if clearance of COCCNC(=O)c1nc(N2CC[C@@H](NC(=O)c3[nH]c(C)c(Cl)c3Cl)[C@@H](OC)C2)sc1C(=O)O is below 9 mL/min/kg. Could you check?
Response: fulfilled

Prompt: Hello, I'm reviewing records and need to know if clearance of COCC(COC)NC(=O)c1nc(N2CC[C@@H](NC(=O)c3[nH]c(C)c(Cl)c3Cl)[C@@H](OC)C2)sc1C(=O)O is below 9 mL/min/kg. Could you check?
Response: fulfilled

Prompt: Hello, I'm reviewing records and need to know if clearance of COC[C@H](C)NC(=O)c1nc(N2CC[C@@H](NC(=O)c3[nH]c(C)c(Cl)c3Cl)[C@@H](OC)C2)sc1C(=O)O is below 9 mL/min/kg. Could you check?
Response: fulfilled

---

Molecular target: DNA gyrase subunit B (Staphylococcus aureus, UniProt P0A0K8)
Sequence (P0A0K8 whole entry): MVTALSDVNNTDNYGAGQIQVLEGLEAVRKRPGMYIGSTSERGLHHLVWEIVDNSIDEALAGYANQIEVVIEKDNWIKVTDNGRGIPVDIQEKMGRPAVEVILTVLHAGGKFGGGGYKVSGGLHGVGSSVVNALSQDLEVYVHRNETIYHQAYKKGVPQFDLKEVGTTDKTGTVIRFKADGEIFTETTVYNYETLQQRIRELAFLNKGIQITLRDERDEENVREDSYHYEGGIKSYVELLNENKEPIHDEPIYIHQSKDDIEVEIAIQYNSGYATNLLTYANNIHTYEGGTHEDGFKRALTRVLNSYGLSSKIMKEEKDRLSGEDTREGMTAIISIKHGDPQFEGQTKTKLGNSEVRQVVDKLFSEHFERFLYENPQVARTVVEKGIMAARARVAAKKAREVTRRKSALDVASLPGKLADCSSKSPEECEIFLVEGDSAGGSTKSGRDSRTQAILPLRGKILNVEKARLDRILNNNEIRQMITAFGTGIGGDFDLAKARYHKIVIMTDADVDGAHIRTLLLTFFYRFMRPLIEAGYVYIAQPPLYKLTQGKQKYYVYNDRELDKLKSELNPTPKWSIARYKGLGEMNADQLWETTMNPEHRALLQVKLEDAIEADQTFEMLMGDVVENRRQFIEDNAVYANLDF
Assay: Inhibition of ATPase activity of Staphylococcus aureus GyrB
For each record, write down the corresponding IC50.

Prompt: Recorded IC50 for CO[C@H]1CN(c2nc(-c3ncnn3C)c(C(=O)O)s2)CC[C@H]1NC(=O)c1[nH]c(C)c(Cl)c1Cl with DNA gyrase subunit B (Staphylococcus aureus, UniProt P0A0K8), please?
Response: < 10 nM

Prompt: Recorded IC50 for Cc1[nH]c(C(=O)N[C@@H]2CCN(c3ncc(C(=O)O)s3)C[C@@H]2F)c(Cl)c1Cl with DNA gyrase subunit B (Staphylococcus aureus, UniProt P0A0K8), please?
Response: < 10 nM

Prompt: Recorded IC50 for CO[C@H]1CN(c2nc(C(=O)NCC3OCCO3)c(C(=O)O)s2)CC[C@H]1NC(=O)c1[nH]c(C)c(Cl)c1Cl with DNA gyrase subunit B (Staphylococcus aureus, UniProt P0A0K8), please?
Response: < 10 nM

Prompt: Recorded IC50 for Cc1[nH]c(C(=O)N[C@@H]2CCN(c3ncc(C(=O)O)s3)CC23OCC(C)(C)CO3)c(Cl)c1Cl with DNA gyrase subunit B (Staphylococcus aureus, UniProt P0A0K8), please?
Response: < 10 nM

Prompt: Recorded IC50 for Cc1[nH]c(C(=O)N[C@@H]2CCN(c3ncc(C(=O)O)s3)C[C@@H]2O)c(Cl)c1Cl (racemic) with DNA gyrase subunit B (Staphylococcus aureus, UniProt P0A0K8), please?
Response: 16 nM

Prompt: Recorded IC50 for COC1(OC)CN(c2ncc(C(=O)O)s2)CC[C@H]1NC(=O)c1[nH]c(C)c(Cl)c1Cl with DNA gyrase subunit B (Staphylococcus aureus, UniProt P0A0K8), please?
Response: 14 nM

Prompt: Recorded IC50 for CNC(=O)c1nc(N2CC[C@@H](NC(=O)c3[nH]c(C)c(Cl)c3Cl)[C@@H](OC)C2)sc1C(=O)O with DNA gyrase subunit B (Staphylococcus aureus, UniProt P0A0K8), please?
Response: < 10 nM

Prompt: Recorded IC50 for C=CCO[C@H]1CN(c2ncc(C(=O)O)s2)CC[C@H]1NC(=O)c1[nH]c(C)c(Cl)c1Cl (racemic) with DNA gyrase subunit B (Staphylococcus aureus, UniProt P0A0K8), please?
Response: < 10 nM
